- measured on: T1, human CD24 on cells (human, UniProt P25063 27-59)
- T1 chain (looked up): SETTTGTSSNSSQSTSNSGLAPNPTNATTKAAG
- measurement notes: cell-based or functional assay
value kind: EC50 of Phagocytosis assay, IgG4, Kappa; NALM6 (µg/mL)
Numbers only, in µg/mL.

For every item in the list below, what is its measured EC50 of Phagocytosis assay, IgG4, Kappa; NALM6?
1. 80-F10A6, IgG4, Kappa (antibody, V domains shown) VH: EVQLQQSGPVLVNPGASVKISCKASGYSFTGYYMNWVKQSPEKSLEWIGEVNPITGDTTYSQNFKAKTTLTVDRSSSTAYMQLKSLTSEDSAVYYCTRRDYGTSLDYWGQGTTLTVSS VL: DVQITQSPSYLAASPGETITIHCRASKSISRYLAWYQEKPGKINTLLIYAGSTLHLGIPSRFSGSGSGTDFTLTISSLELEDFAMYYCQQHNEYPITFGAGTKLELK
2. 62-F7E9, IgG4, Kappa (antibody, V domains shown) VH: QVQLQQPGAELVKPGASVKLSCKASGYTSTSYWLHWVKQRPGRGLEWIGRIDPNSGETKFNEKFKSQATLTVDKPSSTAYMQLNSLTSEDSAVYYCALYYYGSILFDYWGQGTTLTVSS VL: ENVLTQSPAIMSASPGEKVTMTCRTSSIISSGFLHWYQQKSGASPKLWIYSTSNLASGVPARFSGSGSGTSYSLTISSVEAEDAATYYCQQYSGHPLTFGAGTKLELK
3. 79-E3H3, IgG4, Kappa (antibody, V domains shown) VH: EVQLQQSGPELVKPGASVKISCKASGYEFTGYHMNWVKQSPEKSLEWIGEINPITSDKTFNQKFKAKATLTVDRSSSTAYMHLKSLTSEDSAVYYCARRDYDTSLDYWGQGTTLTVSS VL: DVQITQSPSYLAASPGETITIYCRASKSISKYLAWYQEKPEKTNRLLIYAGSTLQSGIPSRFRGSGSGKDFTLTVSGLEPEDFAMYYCQQHNEYPLTFGAGTKLELK
4. 85-D5A10 (4434), IgG4, Kappa (antibody, V domains shown) VH: EVQLQQSGPELVKPGASVKISCKASGYEFTGYHMNWVKQSPEKSLEWIGEINPITSDKTFNQKFKAKATLTVDRSSSTAYMHLKSLTSDDSAVYYCARRDYGTSLDYWGQGTTLTVSS VL: DVQITQSPSYLAASPGETITIYCRASKSISKYLAWYQEKPEKTIRLLIYAGSTLQSGIPSRFRGSGSGKDFTLTVSGLEPEDFAMYYCQQHNEYPITFGAGTKLELI
5. 59-G9D7, IgG4, Kappa (antibody, V domains shown) VH: QVQLQQPGADLVKPGASVKLSCKASGYTVTTYWMHWVRQRPGRGLEWIGRIDPNSGETKYSEKFKNKATLTVDRPSSTAYMQLSSLTFEDSAVYFCAIYYYLNNFLFDYWGQGTTLTVSS VL: ENVLTQSPAIMSASPGEKVTMTCRASSSVSSSYLHWYQKKSGASPKLWIYSTSNLASGVPARFSGSGSGTSYSLTISSVEAEDAATYYCQQYSGYPLTFGAGTKLELK

1: 1.05; 2: 0.01; 3: 0.72; 4: 0.47; 5: 6.57
